tested on: PC-3; test: Antiproliferative activity against human PC3 cells after 48 hrs by MTT assay; type: functional, cell-based; details: PC-3, 48 h
pIC50: −log10 of the molar value.
# pIC50 values compiled below
REPORTED METRIC: pIC50

1) Cc1ccc(-n2cc(CNC(=O)[C@]34CCC(C)(C)C[C@H]3C3=CC[C@@H]5[C@@]6(C)CC[C@H](O[C@@H]7OC[C@H](O[C@@H]8O[C@H](CO)[C@@H](O)[C@H](O)[C@H]8O)[C@H](O)[C@H]7O[C@@H]7O[C@@H](C)[C@H](O)[C@@H](O)[C@H]7O)C(C)(C)[C@@H]6CC[C@@]5(C)[C@]3(C)CC4)nn2)cc1 | 6.27
2) Cc1cccc(-n2cc(CNC(=O)[C@]34CCC(C)(C)C[C@H]3C3=CC[C@@H]5[C@@]6(C)CC[C@H](O[C@@H]7OC[C@H](O[C@@H]8O[C@H](CO)[C@@H](O)[C@H](O)[C@H]8O)[C@H](O)[C@H]7O[C@@H]7O[C@@H](C)[C@H](O)[C@@H](O)[C@H]7O)C(C)(C)[C@@H]6CC[C@@]5(C)[C@]3(C)CC4)nn2)c1 | 5.41
3) C[C@@H]1O[C@@H](O[C@H]2[C@H](O[C@H]3CC[C@]4(C)[C@H]5CC=C6[C@@H]7CC(C)(C)CC[C@]7(C(=O)NCc7cn(-c8ccccc8F)nn7)CC[C@@]6(C)[C@]5(C)CC[C@H]4C3(C)C)OC[C@H](O[C@@H]3O[C@H](CO)[C@@H](O)[C@H](O)[C@H]3O)[C@@H]2O)[C@H](O)[C@H](O)[C@H]1O | 4.41
4) CC(=O)c1ccccc1-n1cc(CNC(=O)[C@]23CCC(C)(C)C[C@H]2C2=CC[C@@H]4[C@@]5(C)CC[C@H](O[C@@H]6OC[C@H](O[C@@H]7O[C@H](CO)[C@@H](O)[C@H](O)[C@H]7O)[C@H](O)[C@H]6O[C@@H]6O[C@@H](C)[C@H](O)[C@@H](O)[C@H]6O)C(C)(C)[C@@H]5CC[C@@]4(C)[C@]2(C)CC3)nn1 | 4.30
5) C[C@@H]1O[C@@H](O[C@H]2[C@H](O[C@H]3CC[C@]4(C)[C@H]5CC=C6[C@@H]7CC(C)(C)CC[C@]7(C(=O)NCc7cn(-c8cccnc8)nn7)CC[C@@]6(C)[C@]5(C)CC[C@H]4C3(C)C)OC[C@H](O[C@@H]3O[C@H](CO)[C@@H](O)[C@H](O)[C@H]3O)[C@@H]2O)[C@H](O)[C@H](O)[C@H]1O | 4.39
6) Cc1ccccc1-n1cc(CNC(=O)[C@]23CCC(C)(C)C[C@H]2C2=CC[C@@H]4[C@@]5(C)CC[C@H](O[C@@H]6OC[C@H](O[C@@H]7O[C@H](CO)[C@@H](O)[C@H](O)[C@H]7O)[C@H](O)[C@H]6O[C@@H]6O[C@@H](C)[C@H](O)[C@@H](O)[C@H]6O)C(C)(C)[C@@H]5CC[C@@]4(C)[C@]2(C)CC3)nn1 | 5.30

* * *

tested on: PC-3; assay: Antiproliferative activity against human PC3 cells after 48 hrs by MTT assay; format: functional, cell-based; conditions: PC-3, 48 h
REPORTED METRIC: IC50 (µM)

1. C[C@@H]1O[C@@H](O[C@H]2[C@H](O[C@H]3CC[C@]4(C)[C@H]5CC=C6[C@@H]7CC(C)(C)CC[C@]7(C(=O)NCc7cn(-c8ccc(C(F)(F)F)cc8)nn7)CC[C@@]6(C)[C@]5(C)CC[C@H]4C3(C)C)OC[C@H](O[C@@H]3O[C@H](CO)[C@@H](O)[C@H](O)[C@H]3O)[C@@H]2O)[C@H](O)[C@H](O)[C@H]1O | 3.98
2. C[C@@H]1O[C@@H](O[C@H]2[C@H](O[C@H]3CC[C@]4(C)[C@H]5CC=C6[C@@H]7CC(C)(C)CC[C@]7(C(=O)NCc7cn(-c8ccc([N+](=O)[O-])cc8)nn7)CC[C@@]6(C)[C@]5(C)CC[C@H]4C3(C)C)OC[C@H](O[C@@H]3O[C@H](CO)[C@@H](O)[C@H](O)[C@H]3O)[C@@H]2O)[C@H](O)[C@H](O)[C@H]1O | 5.56

meta.source: ChEMBL document CHEMBL4229426
